# tested.target: T1, Anti-CD28 Fab (SEQ ID NOs: 696, 697)
# T1 construct: Biotinylated and captured on neutravidin coated plates in the phage ELISA
# T1 sequence (VH, as listed by the source, chain 1 of 2): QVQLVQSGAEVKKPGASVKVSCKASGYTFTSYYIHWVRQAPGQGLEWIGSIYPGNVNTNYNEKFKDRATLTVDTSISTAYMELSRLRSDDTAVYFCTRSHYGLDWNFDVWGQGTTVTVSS
# T1 sequence (VL, as listed by the source, chain 2 of 2): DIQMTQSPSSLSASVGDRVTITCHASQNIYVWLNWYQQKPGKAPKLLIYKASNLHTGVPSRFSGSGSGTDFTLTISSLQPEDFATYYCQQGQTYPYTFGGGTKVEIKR
# assay.comment: phage ELISA; Fab-coated wells first incubated with CD28 antigen (competitor), then clonal phage, anti-M13 HRP
assay.metric: Anti-CD28 Fab signal in the presence of CD28 (phage binding ELISA)
Please give only the number in your answer, with no unit.

Guide cases for Anti-CD28 Fab signal in the presence of CD28 (phage binding ELISA), answers given:
**Query** Using known records, supply Anti-CD28 Fab signal in the presence of CD28 (phage binding ELISA) for YCDGHELMYMEKCL [Phage-1244]
**Result** 0.06

**Query** Give recorded Anti-CD28 Fab signal in the presence of CD28 (phage binding ELISA). YCSGHVPEYMEKCL [Phage-1234]
**Result** 0.06

**Query** Please supply the value of reported Anti-CD28 Fab signal in the presence of CD28 (phage binding ELISA) for the item YCAGHLEMYMSKCL [Phage-1245]
**Result** 0.07

Next:
**Query** Let me know recorded Anti-CD28 Fab signal in the presence of CD28 (phage binding ELISA) for YCVGHSPEYIWKCL [Phage-1243] , thanks.
**Result** 0.06

**Query** # return recorded Anti-CD28 Fab signal in the presence of CD28 (phage binding ELISA) for entry YCEGHTQAYLAKCL [Phage-1239]
**Result** 0.1

**Query** Identify Anti-CD28 Fab signal in the presence of CD28 (phage binding ELISA) associated with the binder YCEGHAHEYMEKCV [Phage-1237]
**Result** 0.07

**Query** Tell us which Anti-CD28 Fab signal in the presence of CD28 (phage binding ELISA) value is on record for YCDGHHAEYMWKCL [Phage-1238]
**Result** 0.06

**Query** Give the reported value of Anti-CD28 Fab signal in the presence of CD28 (phage binding ELISA) for this record: YCAGHAEIYMQKCL [Phage-1236]
**Result** 0.05

**Query** Identify measured Anti-CD28 Fab signal in the presence of CD28 (phage binding ELISA) associated with YCDGHIKEYMSKCL [Phage-1246]
**Result** 0.08

Taken from patent US20260242478A1.
